TARGET DESC: Serotonin-(5HT2)-Rezeptoren (Rattus norvegicus)
Sequence (P14842 whole entry): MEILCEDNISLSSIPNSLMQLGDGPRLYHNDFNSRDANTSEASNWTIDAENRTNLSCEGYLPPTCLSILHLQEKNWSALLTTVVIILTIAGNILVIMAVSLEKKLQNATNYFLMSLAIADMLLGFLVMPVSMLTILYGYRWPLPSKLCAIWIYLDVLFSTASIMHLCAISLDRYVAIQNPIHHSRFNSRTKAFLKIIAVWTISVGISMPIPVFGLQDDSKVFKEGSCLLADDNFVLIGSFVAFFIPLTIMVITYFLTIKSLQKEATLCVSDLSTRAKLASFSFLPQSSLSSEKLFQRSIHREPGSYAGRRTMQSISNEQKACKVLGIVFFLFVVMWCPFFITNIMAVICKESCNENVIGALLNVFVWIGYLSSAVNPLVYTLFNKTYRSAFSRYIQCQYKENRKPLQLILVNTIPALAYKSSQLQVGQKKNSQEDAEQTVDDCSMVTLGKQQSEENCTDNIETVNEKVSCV
MEASURED PARAMETER: IC50

COMPOUND | MEASURED PARAMETER | VALUE OBSERVED
COC(=O)C1=C(C)NC(C)=C(C(=O)OC(CN2CCC(C(=O)c3ccc(F)cc3)CC2)c2ccccc2)C1c1cccc([N+](=O)[O-])c1 (stereo not shown) | IC50 | ~6 nM

----------
TARGET DESC: Dihydropyridin-Rezeptoren (Cavia porcellus)
Construct: from tissue; host or cells: guinea pig heart membranes
Sequence (O35505 whole entry): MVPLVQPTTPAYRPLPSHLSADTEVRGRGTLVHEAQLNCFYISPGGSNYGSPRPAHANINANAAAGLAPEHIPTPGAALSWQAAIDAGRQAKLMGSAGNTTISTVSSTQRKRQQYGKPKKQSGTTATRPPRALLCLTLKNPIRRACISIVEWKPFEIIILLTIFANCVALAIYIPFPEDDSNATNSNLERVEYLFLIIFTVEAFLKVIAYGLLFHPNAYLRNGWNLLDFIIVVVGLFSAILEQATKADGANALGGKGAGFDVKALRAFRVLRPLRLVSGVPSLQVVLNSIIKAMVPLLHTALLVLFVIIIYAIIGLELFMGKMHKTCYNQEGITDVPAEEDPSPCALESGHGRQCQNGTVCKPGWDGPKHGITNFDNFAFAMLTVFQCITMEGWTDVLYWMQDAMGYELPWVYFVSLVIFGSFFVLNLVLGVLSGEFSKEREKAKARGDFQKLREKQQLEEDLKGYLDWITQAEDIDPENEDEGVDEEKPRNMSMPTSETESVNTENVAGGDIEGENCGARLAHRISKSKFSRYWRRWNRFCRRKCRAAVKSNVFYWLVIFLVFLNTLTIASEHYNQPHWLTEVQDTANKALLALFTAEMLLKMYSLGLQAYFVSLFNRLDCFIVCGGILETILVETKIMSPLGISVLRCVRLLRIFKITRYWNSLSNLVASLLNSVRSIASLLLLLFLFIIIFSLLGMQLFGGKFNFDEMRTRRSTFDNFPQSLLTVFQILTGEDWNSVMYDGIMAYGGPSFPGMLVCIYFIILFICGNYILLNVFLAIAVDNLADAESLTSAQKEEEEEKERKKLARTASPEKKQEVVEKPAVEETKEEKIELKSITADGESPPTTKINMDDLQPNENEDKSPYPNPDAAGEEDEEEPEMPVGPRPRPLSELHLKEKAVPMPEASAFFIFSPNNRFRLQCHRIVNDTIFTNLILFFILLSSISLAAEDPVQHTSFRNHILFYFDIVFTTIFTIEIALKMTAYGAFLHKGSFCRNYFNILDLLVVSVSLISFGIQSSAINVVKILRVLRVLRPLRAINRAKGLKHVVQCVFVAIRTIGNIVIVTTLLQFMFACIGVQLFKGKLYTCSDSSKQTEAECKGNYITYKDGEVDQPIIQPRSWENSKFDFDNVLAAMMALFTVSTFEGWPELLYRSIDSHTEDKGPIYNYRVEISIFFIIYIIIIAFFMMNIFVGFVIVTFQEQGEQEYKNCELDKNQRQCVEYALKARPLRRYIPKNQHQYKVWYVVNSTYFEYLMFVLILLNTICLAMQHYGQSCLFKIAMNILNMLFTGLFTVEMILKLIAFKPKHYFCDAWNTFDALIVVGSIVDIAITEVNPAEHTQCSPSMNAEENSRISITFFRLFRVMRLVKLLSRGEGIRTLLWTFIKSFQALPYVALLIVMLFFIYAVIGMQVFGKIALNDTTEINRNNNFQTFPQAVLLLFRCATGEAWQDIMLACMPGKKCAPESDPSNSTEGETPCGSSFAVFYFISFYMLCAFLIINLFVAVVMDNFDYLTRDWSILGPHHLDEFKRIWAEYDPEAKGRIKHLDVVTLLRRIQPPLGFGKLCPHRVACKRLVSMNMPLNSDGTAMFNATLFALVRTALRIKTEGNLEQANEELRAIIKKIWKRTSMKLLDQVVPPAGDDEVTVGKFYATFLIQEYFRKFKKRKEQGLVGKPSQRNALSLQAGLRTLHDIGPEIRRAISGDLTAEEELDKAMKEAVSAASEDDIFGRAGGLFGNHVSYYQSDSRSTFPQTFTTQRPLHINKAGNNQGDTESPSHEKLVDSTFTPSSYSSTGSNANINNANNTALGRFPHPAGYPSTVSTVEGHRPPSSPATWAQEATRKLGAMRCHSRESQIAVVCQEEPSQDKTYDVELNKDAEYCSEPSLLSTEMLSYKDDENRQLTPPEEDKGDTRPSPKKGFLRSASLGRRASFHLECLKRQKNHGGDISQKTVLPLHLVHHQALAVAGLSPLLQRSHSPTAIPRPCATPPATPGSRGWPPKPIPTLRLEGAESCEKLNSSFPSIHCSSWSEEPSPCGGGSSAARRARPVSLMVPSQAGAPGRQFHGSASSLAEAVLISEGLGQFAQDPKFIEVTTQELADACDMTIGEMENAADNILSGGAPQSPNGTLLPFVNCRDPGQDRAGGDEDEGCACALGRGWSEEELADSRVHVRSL
ASSAY METHOD TEXT: Displacement of 3H-nitrendipine binding from guinea pig heart membranes
Parameters: species or system Meerschweichen
CONDITION LABEL: membranes of guinea pig hearts, in vitro; read-out: Verdrängung der Bindung von 3H-Nitrendipin, Konzentration (IC50)
pIC50: −log10 of the molar value.
MEASURED PARAMETER: pIC50

COMPOUND | VALUE OBSERVED
COC(=O)C1=C(C)NC(C)=C(C(=O)OC(CN2CCC(C(=O)c3ccc(F)cc3)CC2)c2ccccc2)C1c1cccc([N+](=O)[O-])c1 (stereo not shown) | ~9.70

FYI, the data here is from patent EP0222702A2.
